- tested on: Mu-type opioid receptor (Mus musculus)
- Sequence (P42866 whole entry): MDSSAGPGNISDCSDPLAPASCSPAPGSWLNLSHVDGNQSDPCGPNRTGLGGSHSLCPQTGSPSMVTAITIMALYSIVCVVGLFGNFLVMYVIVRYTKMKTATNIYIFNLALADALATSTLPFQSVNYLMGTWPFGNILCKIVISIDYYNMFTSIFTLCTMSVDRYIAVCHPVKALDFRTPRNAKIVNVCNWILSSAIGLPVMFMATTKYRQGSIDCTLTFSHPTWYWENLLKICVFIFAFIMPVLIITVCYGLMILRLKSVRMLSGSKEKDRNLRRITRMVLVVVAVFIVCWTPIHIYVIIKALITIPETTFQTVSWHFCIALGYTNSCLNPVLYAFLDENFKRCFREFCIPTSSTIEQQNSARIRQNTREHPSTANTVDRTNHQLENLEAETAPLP
- assay method text: Displacement of [3H]DAMGO from mu opioid receptor in ICR mouse whole brain
# Lookup of reported IC50 keyed by entry

smiles input | IC50
Oc1ccc2c3c1OC[C@H]1CC[C@]4(O)[C@H](C2)N(CC2CC2)CC[C@@]34C1 | 1.21 nM
COc1ccc2c3c1OC[C@H]1CC[C@]4(O)[C@H](C2)N(C)CC[C@@]34C1 | 183 nM

* * *

pIC50: −log10 of the molar value.
Recorded below: pIC50, system Kappa-type opioid receptor (Cavia porcellus).
endpoint name: pIC50

smiles input | qual | result number
COc1ccc2c3c1OC[C@H]1CC[C@]4(O)[C@H](C2)N(C)CC[C@@]34C1 | > | 6.30
Oc1ccc2c3c1OC[C@H]1CC[C@]4(O)[C@H](C2)N(CC2CC2)CC[C@@]34C1 | = | 9.01
